- subject_of_test: 5-hydroxytryptamine receptor 2C (Homo sapiens)
- Sequence (P28335 whole entry): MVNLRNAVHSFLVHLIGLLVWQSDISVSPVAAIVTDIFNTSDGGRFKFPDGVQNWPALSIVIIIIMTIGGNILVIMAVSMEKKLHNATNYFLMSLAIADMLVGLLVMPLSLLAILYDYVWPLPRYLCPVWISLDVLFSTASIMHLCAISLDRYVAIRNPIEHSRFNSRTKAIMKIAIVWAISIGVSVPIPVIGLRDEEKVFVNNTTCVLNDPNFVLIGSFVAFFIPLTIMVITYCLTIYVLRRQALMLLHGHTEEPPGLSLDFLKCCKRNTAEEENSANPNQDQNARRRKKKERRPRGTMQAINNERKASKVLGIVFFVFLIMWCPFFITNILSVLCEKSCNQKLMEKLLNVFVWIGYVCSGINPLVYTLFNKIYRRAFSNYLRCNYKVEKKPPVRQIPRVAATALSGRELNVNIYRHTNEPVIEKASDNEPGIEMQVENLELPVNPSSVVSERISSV
experimental_readout: Ki (nM)
Give just the numeric value; nM need not be written.

Some entries whose results are on file:
compound | experimental_readout | output_unit | reported
COc1cc2c(cc1OC)-c1c(OC)c(OCc3ccc(Br)cc3)cc3c1[C@H](C2)N(C)CC3 | Ki | nM | 23
COc1cc2c(cc1OC)-c1c(OC)c(OCc3ccccc3)cc3c1[C@H](C2)N(C)CC3 | Ki | nM | 4
CCOc1cc2c(cc1OC)-c1c(OC)c(OC)cc3c1[C@H](C2)N(C)CC3 | Ki | nM | 425

So what does the record say about Ki for COc1cc2c(cc1OC)-c1c(OC)c(OCCF)cc3c1[C@H](C2)N(C)CC3 ?
1130

So what does the record say about Ki for CCC(C)Oc1cc2c3c(c1OC)-c1cc(OC)c(OC)cc1C[C@@H]3N(C)CC2 (some centres undefined) ?
94

So what does the record say about Ki for COc1cc2c(cc1OC)-c1c(OC)c(OC3CCCCC3)cc3c1[C@H](C2)N(C)CC3 ?
113

So what does the record say about Ki for C=CCOc1cc2c(cc1OC)-c1c(OC)c(OC)cc3c1[C@H](C2)N(C)CC3 ?
543

So what does the record say about Ki for COc1cc2c(cc1OC)-c1c(OC)c(OCC3CC3)cc3c1[C@H](C2)N(C)CC3 ?
104

So what does the record say about Ki for CCCC(C)Oc1cc2c3c(c1OC)-c1cc(OC)c(OC)cc1C[C@@H]3N(C)CC2 (some centres undefined) ?
37

----------
- Species on record: Homo sapiens
- experiment_summary: Selectivity ratio of Ki for 5-HT2A receptor (unknown origin) to Ki for 5-HT2B receptor (unknown origin)
Binary label based on Ratio Ki with cut-off 10: below gives class 1, not below gives class 0.

compound | category_label
CCC(C)Oc1cc2c3c(c1OC)-c1cc(OC)c(OC)cc1C[C@@H]3N(C)CC2 (some centres undefined) | class 1

Now consider a different compound.
Could you please tell me whether Ratio Ki recorded for CCOc1cc2c3c(c1OC)-c1cc(OC)c(OC)cc1C[C@@H]3N(C)CC2 is less than 10?
class 1

----------
- subject_of_test: UniProtKB P41595
- Sequence (P41595 whole entry): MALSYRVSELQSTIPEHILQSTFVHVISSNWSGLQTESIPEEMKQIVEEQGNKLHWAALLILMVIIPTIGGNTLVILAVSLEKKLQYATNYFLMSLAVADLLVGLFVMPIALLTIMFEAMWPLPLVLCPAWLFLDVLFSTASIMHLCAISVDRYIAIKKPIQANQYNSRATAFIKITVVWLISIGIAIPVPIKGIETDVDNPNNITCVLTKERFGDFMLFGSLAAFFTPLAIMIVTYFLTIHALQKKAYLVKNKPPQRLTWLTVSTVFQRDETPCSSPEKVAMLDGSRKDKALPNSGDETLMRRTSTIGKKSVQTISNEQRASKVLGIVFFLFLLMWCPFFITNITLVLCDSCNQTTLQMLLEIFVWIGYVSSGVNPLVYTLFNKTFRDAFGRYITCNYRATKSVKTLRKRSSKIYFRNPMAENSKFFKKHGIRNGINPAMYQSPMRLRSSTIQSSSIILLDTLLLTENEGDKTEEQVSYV
- experiment_summary: Antagonist activity at 5-HT2B receptor (unknown origin) incubated for 60 mins followed by 10 mins incubation in dark at room temperature by FLIPR method
experimental_readout: pIC50
pIC50 is a log-scale quantity: -log10 of the concentration expressed in molar.

molecule_smiles | pIC50
COc1cc2c(cc1OC)-c1c(OC)c(OCc3ccc(Br)cc3)cc3c1[C@H](C2)N(C)CC3 | 5.52

Next compound, please.
So what does the record say about pIC50 for COc1cc2c(cc1OC)-c1c(OC)c(OCc3ccccc3)cc3c1[C@H](C2)N(C)CC3 ?
5.91
